# Test system: CP252
# procedure summary: qHTS profiling for inhibitors of Plasmodium falciparum proliferation (AID 504749); note: nearly all actives have a fitted effect of over 60% in size
# condition details: P. falciparum in erythrocytes, SYBR Green DNA, 72 h; series mostly up to 28.7 µM
Inconclusive results are not listed. Active and inactive are the calls of the source. Calls come from the whole dose curve; as a rule, active = well fitted inhibition curve with a large enough effect; inconclusive = small, poorly fitted or top-dose-only effect; inactive = flat fitted curve, though single readings scatter.
Form entry, call: pick from active, inactive

What is the recorded call for this compound in the test? CCCCN1CCCC1C(=O)Nc1c(C)cc(C)cc1C (stereo not given)
inactive

Param item: CC(=O)Nc1c(I)cc(I)c(C(=O)O)c1I
inactive

For COc1cc2c(cc1OC)C(=O)C(CC1CCN(Cc3ccccc3)CC1)C2 (stereo not given) then?
inactive

Same lookup for CC(Cc1cccc(C(F)(F)F)c1)NCCOC(=O)c1ccccc1 (stereo not given) , please.
inactive

Next compound up: Nc1ccc(/C=C/c2ccc(N)cc2S(=O)(=O)O)c(S(=O)(=O)O)c1
inactive

Thanks! And O=c1ccc2ccccc2o1 ?
inactive

How about CN1CCN(CCCN2c3ccccc3Sc3ccc(S(=O)(=O)N(C)C)cc32)CC1 ?
inactive

Param item: CCOc1ccc2nc3cc(N)ccc3c(N)c2c1
active

Moving on to the next compound: NC(=O)C(=O)N/N=C/c1ccc([N+](=O)[O-])o1
inactive

Record: Cc1ncc(CSSCc2cnc(C)c(O)c2CO)c(CO)c1O
inactive

Param item: CCN1CCN(c2cc3c(cc2F)c(=O)c(C(=O)O)cn3C2CC2)CC1
inactive

What do you have for CC(C)(C(=O)c1cccnc1)c1cccnc1 ?
inactive

Now consider O=C(N/N=C/c1ccccc1O)c1ccncc1 .
active

What about this compound? C#C[C@]1(OC(C)=O)CC[C@H]2[C@@H]3CCC4=C[C@@H](OC(C)=O)CC[C@@H]4[C@H]3CC[C@@]21C
inactive

Please answer likewise for CC(=O)OCC(=O)NCCCOc1cccc(CN2CCCCC2)c1
inactive

Same again, this time with COc1ccc(CCN2CCC(Nc3nc4ccccc4n3Cc3ccc(F)cc3)CC2)cc1
active

Further, for CCC(=O)c1c(O)cc(O)cc1O ?
inactive

Try CN1C2CCC1CC(OC(=O)c1c[nH]c3ccccc13)C2 (stereo not given) next.
inactive

Then what about the compound NCCc1ccn[nH]1 ?
inactive

Now this one: CCCN1CCCC[C@H]1C(=O)Nc1c(C)cccc1C
inactive

What about this compound? Oc1ccc(Cl)c2cccnc12
inactive

Cool, now C#C[C@]1(O)CC[C@H]2[C@@H]3CCc4cc(OC5CCCC5)ccc4[C@H]3CC[C@@]21C
inactive

Same thing, different compound: Cc1ccc(C(=O)C(C)CN2CCCCC2)cc1 (stereo not given)
inactive

Okay, and CCCCCCCCCCCCCCCC[N+](C)(C)CCN(Cc1ccc(OC)cc1)c1ncccn1 ?
inactive

Please do the same for CCN(CC)C(=O)/C(C#N)=C/c1cc(O)c(O)c([N+](=O)[O-])c1 as well.
inactive
